These data points were gathered from patent US7880007B2.

TARGET OF ASSAY: M2 muscarinic receptor (Homo sapiens)
Construct: expressed in transfected cells; host or cells: CHO (M2-CHO)
Sequence (P08172 whole entry): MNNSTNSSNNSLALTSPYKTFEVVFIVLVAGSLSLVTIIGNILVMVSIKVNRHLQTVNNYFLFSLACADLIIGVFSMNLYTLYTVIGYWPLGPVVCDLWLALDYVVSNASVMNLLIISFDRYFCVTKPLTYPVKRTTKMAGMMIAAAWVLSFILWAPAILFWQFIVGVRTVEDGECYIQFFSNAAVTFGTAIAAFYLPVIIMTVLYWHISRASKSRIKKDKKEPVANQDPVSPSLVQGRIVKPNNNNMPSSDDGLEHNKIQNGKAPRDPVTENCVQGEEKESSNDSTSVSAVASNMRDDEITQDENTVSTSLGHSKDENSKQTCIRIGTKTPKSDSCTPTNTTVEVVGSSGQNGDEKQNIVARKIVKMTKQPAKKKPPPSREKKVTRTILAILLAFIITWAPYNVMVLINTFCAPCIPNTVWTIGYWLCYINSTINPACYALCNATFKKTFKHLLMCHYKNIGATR
PROCEDURE TEXT: Functional mobilization of intracellular calcium (FLIPR), M2-CHO cells
Assay type: cell-based
SETUP CONDITIONS: 100% efficacy = maximum response obtained with the Carbachol control
For each entry below, report its Emax value.

[Q] What does the record list as Emax for COc1ccc(Cl)cc1C1CCN(C2CC3CCC(C3)C2)CC1 (stereo not shown) ?
[A] 25 to 100%

[Q] What does the record list as Emax for COc1ccc(C)cc1C1CCN(C2C[C@H]3CC[C@H](C2)C3)CC1 (stereo partly shown) ?
[A] 25 to 100%

[Q] What does the record list as Emax for COc1ccc(-c2ccc(CC#N)cc2)cc1C1CCN(C2CCOCC2)CC1 ?
[A] < 25%

[Q] What does the record list as Emax for COc1ccc(Cl)cc1C1(F)CCN(C2C3CCCC2CCC3)CC1 (stereo not shown) ?
[A] < 25%

[Q] What does the record list as Emax for CCOC(=O)N1CCC(N2C3CCC2CC(c2ccccc2OC)C3)CC1 (stereo not shown) ?
[A] < 25%

[Q] What does the record list as Emax for COc1ccc(F)cc1C1(OC)CCN(C[C@H]2C[C@H]3C=C[C@H]2C3)CC1 ?
[A] 25 to 100%

[Q] What does the record list as Emax for COc1ccccc1C1CCN(C2CCC(C(C)C)CC2)CC1 (stereo not shown) ?
[A] < 25%

[Q] What does the record list as Emax for Fc1ccc(F)c(C2CCN(C3C[C@H]4CC[C@H]3C4)CC2)c1 (stereo partly shown) ?
[A] 25 to 100%

[Q] What does the record list as Emax for COc1ccc(F)cc1C1(F)CCN(C2CCC3CCC2C3)CC1 (stereo not shown) ?
[A] 25 to 100%

[Q] What does the record list as Emax for COc1ccc(Cl)cc1C1CCN(C2CCCCC2)CC1 ?
[A] 25 to 100%

[Q] What does the record list as Emax for COc1ccccc1C1CCN(C2CCC(c3ccccc3)CC2)CC1 (stereo not shown) ?
[A] < 25%

[Q] What does the record list as Emax for COc1ccc(C)cc1C1CCN([C@H]2CC[C@H]3CC[C@H]2C3)CC1 ?
[A] 25 to 100%

[Q] What does the record list as Emax for CCOC(=O)N1C2CCC1CC(N1CCC(O)(c3cc(F)ccc3C)CC1)C2 (stereo not shown) ?
[A] < 25%

[Q] What does the record list as Emax for COc1ccc(Cl)cc1C1(F)CCN([C@@H]2C[C@H]3CC[C@H]2C3)CC1 ?
[A] 25 to 100%

[Q] What does the record list as Emax for CCOC(=O)N1CCC(N2CCC(c3ccccc3OC)CC2)CC1 ?
[A] 25 to 100%

[Q] What does the record list as Emax for CCCC1CCC(N2CCC(c3cc(Cl)ccc3OC)CC2)CC1 (stereo not shown) ?
[A] 25 to 100%

[Q] What does the record list as Emax for COc1ccc(F)cc1C1CCN(CC2CC3CCC2CC3)CC1 (stereo not shown) ?
[A] < 25%

[Q] What does the record list as Emax for COc1ccc(F)cc1C1CCN(C2CCCCC2)CC1 ?
[A] 25 to 100%

[Q] What does the record list as Emax for Cc1ccccc1C1CCN(C2CC3CCC(C3)C2)CC1 (stereo not shown) ?
[A] < 25%
